Measured values drawn from a melting point compilation (Tetko et al.; mined from patent text by program, amines drawn as free bases though some values may be those of a salt) for this set.

Let's look at some compounds and their measured melting point.

Q. Record request: melting point value, item COCCOc1ccc(CCCNS(=O)(=O)c2cccc(Cl)c2)c(Oc2ncc(C(F)(F)F)cc2Cl)c1
A. 110 to 114 °C

Q. Record request: melting point value, item COc1ccc(C(=O)NCCSSCCNC(=O)c2ccc(OC)cc2)cc1
A. 136 to 138 °C

====

property-measured: melting point

The cases that follow already have their melting point on record.
INSERT INTO assay_data (compound, property_measured, assay_value) VALUES
  ('O=C(Nc1ccccc1Oc1ccc(Cl)cc1)C1CCN(C(=O)c2ccccc2)CC1', 'melting point', '158 to 160 °C'),
  ('O=C(NCC1(O)CCCCCC1)c1c(Cl)ccc2nc(N3CC[C@H](NCCO)C3)ccc12', 'melting point', '138 to 140 °C'),
  ('COC(OC)c1ncc[nH]1', 'melting point', '122 °C'),
  ('O=C1NC(=O)c2cc(Nc3ccccc3I)c(Nc3ccccc3I)cc21', 'melting point', '108 to 110 °C');

Q. Record request: melting point value, item CC1(C)CCn2c(nc(-c3ccncn3)cc2=O)N1CC(=O)c1ccccc1
A. 203 to 205 °C

Q. Record request: melting point value, item CCOC(=O)c1cn2cccc(C(=O)OCC)c2n1
A. 97 °C

Q. Record request: melting point value, item Nc1nc(NCCC23CC4CC(CC(C4)C2)C3)nc2c1ncn2C1OC(CO)C(O)C1O (stereo not drawn)
A. 145 to 147 °C

Q. Record request: melting point value, item O=CNN(Cc1ccccc1[N+](=O)[O-])c1ccccc1
A. 140 to 142 °C

====

Let's look at some compounds and their measured melting point.

The cases that follow already have their melting point on record.
INSERT INTO results (compound, assay_value) VALUES
  ('O=C(Cc1ccc(O)cc1)NC1CCN(Cc2ccc(Cl)c(Cl)c2)CC1', '72 to 97 °C'),
  ('COCCN(CCOC)C(=O)c1n[nH]c2c(=O)[nH]c3cc(Cl)ccc3c(=O)c12', '207 to 209 °C'),
  ('CC(=O)OC1CSC(Oc2cccnc2-c2ccc(F)cc2)C(OC(C)=O)C1OC(C)=O (stereo not given)', '149 °C'),
  ('Nc1c(Br)cc(S(N)(=O)=O)cc1C(F)(F)F', '248 to 252 °C');

Next, consider the following compound.
Q. Record request: melting point value, item Cc1cnc2ccc(-c3cccc(C(F)(F)F)c3)nn12
A. 105 to 107 °C

====

property-measured: melting point

Q. Record request: melting point value, item O=C(O)Cc1ccccc1OCCCc1cn(-c2ccc(C(F)(F)F)cn2)nc1-c1ccccc1
A. 133 to 134 °C

Q. Record request: melting point value, item CCCCCCCCCCCCCCCCCCCCCCNc1cc(N)c([N+](=O)[O-])cc1[N+](=O)[O-]
A. 108 to 110 °C

Q. Record request: melting point value, item CC(C)(O)Cn1c(CO)nc2c(N)nc3cc(-c4ccc(Cl)c(Cl)c4)cnc3c21
A. 254 to 256 °C

====

Let's look at some compounds and their measured melting point.

INSERT INTO assay_data (chem_smiles, assay_value) VALUES
  ('CCOC(=O)c1cccc2c1Nc1ccc(C(=O)c3ccccc3)cc1N2Cc1ccccc1', '134 to 136 °C'),
  ('O=C1C=CC(=Cc2cccs2)O1', '100 to 102 °C'),
  ('CCCc1nc2c(c(C)c(C)n3nnnc23)n1CC(C)(C)NC(=O)c1ccccc1', '221 to 223 °C');

Next, consider the following compound.
Q. Record request: melting point value, item C=CCNc1ccc(C(=O)O)cc1
A. 144 to 146 °C
